# System: NCI-H23
# PROTOCOL TEXT: relative viability (nuclei count vs DMSO), 5 days (fraction); higher = more cells survive
# SETUP CONDITIONS: first compound 0.01581 µM
OUTCOME MEASURE: relative viability
Answers are plain numbers.

Look over these answered cases.
Request: I'd like to know its relative viability. The molecule in question is Nc1ccn([C@@H]2O[C@H](CO)[C@@H](O)[C@@H]2O)c(=O)n1 [Cytarabine] + CS(=O)(=O)N1CCN(Cc2cc3nc(-c4cccc5[nH]ncc45)nc(N4CCOCC4)c3s2)CC1 [Pictilisib] (partner 1 µM)
Result: 0.346

Request: Now give it for Nc1ccn([C@@H]2O[C@H](CO)[C@@H](O)[C@@H]2O)c(=O)n1 [Cytarabine] + O=C(c1cc(Cc2n[nH]c(=O)c3ccccc23)ccc1F)N1CCN(C(=O)C2CC2)CC1 [Olaparib] (partner 8 µM) too.
Result: 0.244

Request: Now give it for COc1cc2nccc(Oc3ccc(NC(=O)Nc4cc(C)on4)c(Cl)c3)c2cc1OC [Tivozanib] + NC(=O)Nc1cc(-c2cccc(F)c2)sc1C(=O)N[C@H]1CCCNC1 [AZD7762] (partner 0.2 µM) too.
Result: 0.229

Hi, could you look up relative viability for each item in my list?
1. COc1cc2nccc(Oc3ccc(NC(=O)Nc4cc(C)on4)c(Cl)c3)c2cc1OC [Tivozanib] + CS(=O)(=O)CCNCc1ccc(-c2ccc3ncnc(Nc4ccc(OCc5cccc(F)c5)c(Cl)c4)c3c2)o1 [Lapatinib] (partner 2 µM)
2. COc1cc2nccc(Oc3ccc(NC(=O)Nc4cc(C)on4)c(Cl)c3)c2cc1OC [Tivozanib] + CC1(C)CCC(c2ccc(Cl)cc2)=C(CN2CCN(c3ccc(C(=O)NS(=O)(=O)c4ccc(N[C@H](CCN5CCOCC5)CSc5ccccc5)c(S(=O)(=O)C(F)(F)F)c4)cc3)CC2)C1 [Navitoclax] (partner 0.5 µM)
3. COc1cc2nccc(Oc3ccc(NC(=O)Nc4cc(C)on4)c(Cl)c3)c2cc1OC [Tivozanib] + CS(=O)(=O)N1CCN(Cc2cc3nc(-c4cccc5[nH]ncc45)nc(N4CCOCC4)c3s2)CC1 [Pictilisib] (partner 1 µM)
4. COc1cc2nccc(Oc3ccc(NC(=O)Nc4cc(C)on4)c(Cl)c3)c2cc1OC [Tivozanib] + Cc1nc(NC(=O)N2CCC[C@H]2C(N)=O)sc1-c1ccnc(C(C)(C)C(F)(F)F)c1 [Alpelisib] (partner 2 µM)
5. COc1cc2nccc(Oc3ccc(NC(=O)Nc4cc(C)on4)c(Cl)c3)c2cc1OC [Tivozanib] + C[C@]1(O)C[C@@H](c2nc(-c3ccc4ccc(-c5ccccc5)nc4c3)c3c(N)nccn32)C1 [Linsitinib] (partner 1 µM)
6. Nc1ccn([C@@H]2O[C@H](CO)[C@@H](O)[C@@H]2O)c(=O)n1 [Cytarabine] + CC1(C)CCC(c2ccc(Cl)cc2)=C(CN2CCN(c3ccc(C(=O)NS(=O)(=O)c4ccc(N[C@H](CCN5CCOCC5)CSc5ccccc5)c(S(=O)(=O)C(F)(F)F)c4)cc3)CC2)C1 [Navitoclax] (partner 0.5 µM)

Result:
[1.37, 0.718, 0.471, 0.651, 0.534, 0.551]
